# assay.overview: self-splicing fitness, log relative to wild type (ln ratio); higher = more splicing; Tetrahymena group I intron in knt gene, E. coli kanamycin selection, DiMSum; sequences stand for … in CUCUCU…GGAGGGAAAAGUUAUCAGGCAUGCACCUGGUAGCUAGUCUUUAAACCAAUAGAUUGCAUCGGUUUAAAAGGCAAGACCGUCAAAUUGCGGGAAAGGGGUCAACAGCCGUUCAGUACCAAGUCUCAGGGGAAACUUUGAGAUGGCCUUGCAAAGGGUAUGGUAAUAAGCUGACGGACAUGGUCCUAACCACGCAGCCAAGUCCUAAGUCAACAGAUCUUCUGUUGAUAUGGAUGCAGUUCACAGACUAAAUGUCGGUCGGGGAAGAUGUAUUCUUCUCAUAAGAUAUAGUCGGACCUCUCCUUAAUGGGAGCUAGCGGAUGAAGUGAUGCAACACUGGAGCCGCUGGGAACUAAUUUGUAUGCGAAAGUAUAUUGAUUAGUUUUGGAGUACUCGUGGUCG;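 note: selection with 25 µg/mL kanamycin versus none on LB agar overnight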
# assay.context: 30 °C
Decision: self-splicing fitness (ln) compared against -3; not below it gives Satisfied, below it gives Not satisfied.

sequence.chain: CUGGAGCAAUAUUACGGUUG
assigned.category: Satisfied
--
sequence.chain: CUUAAGCAAUAUUACGCAAA
assigned.category: Satisfied
--
sequence.chain: GGAAAGCAAUAUUACGCUGU
assigned.category: Satisfied
--
sequence.chain: GAUCAGCAAUAUUACGGGCA
assigned.category: Satisfied
--
sequence.chain: UAUCAGCAAUAUUACGUGUG
assigned.category: Satisfied
--
sequence.chain: AAUGAGCAAUAUUACGAUAA
assigned.category: Not satisfied
--
sequence.chain: GACGAGCAAUAUUACGGCCU
assigned.category: Satisfied
--
sequence.chain: GAAAAGCAAUAUUACGCCGA
assigned.category: Satisfied
--
sequence.chain: CGGGAGCAAUAUUACGUUCC
assigned.category: Satisfied
--
sequence.chain: AUCUAGCAAUAUUACGUAGG
assigned.category: Satisfied
--
sequence.chain: AUUAAGCAAUAUUACGGGUC
assigned.category: Satisfied
--
sequence.chain: AACAAGCAAUAUUACGAGUU
assigned.category: Not satisfied
--
sequence.chain: UCGGAGCAAUAUUACGUGCC
assigned.category: Not satisfied
--
sequence.chain: UAUCAGCAAUAUUACGACAU
assigned.category: Satisfied

* * *

# assay.overview: self-splicing fitness, log relative to wild type (ln ratio); higher = more splicing; Tetrahymena group I intron in knt gene, E. coli kanamycin selection, DiMSum; sequences stand for … in CUCUCU…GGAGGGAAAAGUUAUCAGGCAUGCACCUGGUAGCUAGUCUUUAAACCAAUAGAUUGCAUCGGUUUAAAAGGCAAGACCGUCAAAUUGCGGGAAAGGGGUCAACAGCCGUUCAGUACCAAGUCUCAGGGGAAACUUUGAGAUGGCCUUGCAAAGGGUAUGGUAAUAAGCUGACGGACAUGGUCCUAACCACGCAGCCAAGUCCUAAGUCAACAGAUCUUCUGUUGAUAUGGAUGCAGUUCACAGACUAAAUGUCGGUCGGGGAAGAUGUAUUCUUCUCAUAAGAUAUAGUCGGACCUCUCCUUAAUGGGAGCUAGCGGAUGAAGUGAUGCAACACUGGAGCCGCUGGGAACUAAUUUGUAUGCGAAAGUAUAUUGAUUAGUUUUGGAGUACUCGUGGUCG
# assay.context: 37 °C
The sequences listed here are annotated with their self-splicing fitness (ln).

sequence.chain: GCUCAGCAAUAUUACGGGAG
self-splicing fitness (ln): -1.22
//
sequence.chain: UGCAAGCAAUAUUACGAGUC
self-splicing fitness (ln): -1.83
//
sequence.chain: CAAUAGCAAUAUUACGCAGA
self-splicing fitness (ln): -2.14
//
sequence.chain: CUGAAGCAAUAUUACGUACA
self-splicing fitness (ln): -1.39
//
sequence.chain: AAUAAGCAAUAUUACGAGUA
self-splicing fitness (ln): -0.925
//
sequence.chain: GCGUAGCAAUAUUACGGAGU
self-splicing fitness (ln): -1.44
//
sequence.chain: ACCGAGCAAUAUUACGGGUA
self-splicing fitness (ln): -0.706
//
sequence.chain: AUCAAGCAAUAUUACGCUGG
self-splicing fitness (ln): -0.84
//
sequence.chain: CUGGAGCAAUAUUACGGUUA
self-splicing fitness (ln): -2.31
//
sequence.chain: AAUAAGCAAUAUUACGGAUG
self-splicing fitness (ln): -1.39

* * *

# assay.overview: self-splicing fitness, log relative to wild type (ln ratio); higher = more splicing; Tetrahymena group I intron in knt gene, E. coli kanamycin selection, DiMSum; sequences stand for … in CUCUCU…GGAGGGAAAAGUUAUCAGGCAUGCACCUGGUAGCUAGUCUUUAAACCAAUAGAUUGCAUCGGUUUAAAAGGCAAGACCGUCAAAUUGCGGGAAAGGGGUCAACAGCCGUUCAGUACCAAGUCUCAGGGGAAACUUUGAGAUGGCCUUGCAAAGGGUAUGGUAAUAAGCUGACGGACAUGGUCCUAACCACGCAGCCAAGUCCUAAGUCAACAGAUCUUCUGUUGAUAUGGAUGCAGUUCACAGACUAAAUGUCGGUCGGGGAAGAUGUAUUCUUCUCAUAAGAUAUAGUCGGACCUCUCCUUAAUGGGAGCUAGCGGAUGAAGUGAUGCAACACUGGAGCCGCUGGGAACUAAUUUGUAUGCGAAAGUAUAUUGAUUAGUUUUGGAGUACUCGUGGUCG
# assay.context: 37 °C
Decision: self-splicing fitness (ln) compared against -1; not below it gives fulfilled, below it gives not fulfilled.

sequence.chain: CCGAAGCAAUAUUACGAGGA
assigned.category: not fulfilled
--
sequence.chain: GAUUAGCAAUAUUACGGUUA
assigned.category: fulfilled
--
sequence.chain: GGGAAGCAAUAUUACGCAGC
assigned.category: not fulfilled
--
sequence.chain: GGGCAGCAAUAUUACGCGUC
assigned.category: not fulfilled
--
sequence.chain: AUCUAGCAAUAUUACGAUAC
assigned.category: not fulfilled
--
sequence.chain: AACAAGCAAUAUUACGAAGA
assigned.category: not fulfilled
--
sequence.chain: CGUCAGCAAUAUUACGCUUG
assigned.category: fulfilled
--
sequence.chain: GUGAAGCAAUAUUACGUAAU
assigned.category: fulfilled
--
sequence.chain: UUGUAGCAAUAUUACGAUGG
assigned.category: fulfilled
--
sequence.chain: UGAAAGCAAUAUUACGGGUG
assigned.category: fulfilled
--
sequence.chain: GACUAGCAAUAUUACGCUGC
assigned.category: not fulfilled
--
sequence.chain: CUCAAGCAAUAUUACGAGUC
assigned.category: not fulfilled
--
sequence.chain: GAAUAGCAAUAUUACGGACU
assigned.category: fulfilled
--
sequence.chain: CAGAAGCAAUAUUACGCCGU
assigned.category: not fulfilled
--
sequence.chain: AAACAGCAAUAUUACGGACG
assigned.category: fulfilled
--
sequence.chain: AUCCAGCAAUAUUACGCCUU
assigned.category: fulfilled
--
sequence.chain: GCCUAGCAAUAUUACGAGGU
assigned.category: not fulfilled
--
sequence.chain: UCGAAGCAAUAUUACGUCUU
assigned.category: not fulfilled
--
sequence.chain: ACAAAGCAAUAUUACGGUAU
assigned.category: not fulfilled
--
sequence.chain: AGGCAGCAAUAUUACGCGGG
assigned.category: not fulfilled
--
sequence.chain: CGUAAGCAAUAUUACGGAUU
assigned.category: not fulfilled
--
sequence.chain: GUCAAGCAAUAUUACGUGUG
assigned.category: not fulfilled
--
sequence.chain: UUCCAGCAAUAUUACGAAUC
assigned.category: not fulfilled
--
sequence.chain: UGCUAGCAAUAUUACGCUAA
assigned.category: not fulfilled
--
sequence.chain: GCGGAGCAAUAUUACGGUCG
assigned.category: not fulfilled
--
sequence.chain: AGGAAGCAAUAUUACGCUUA
assigned.category: fulfilled
--
sequence.chain: CAGCAGCAAUAUUACGAGAA
assigned.category: not fulfilled
--
sequence.chain: CAAGAGCAAUAUUACGGGUC
assigned.category: not fulfilled
--
sequence.chain: UACUAGCAAUAUUACGUAUG
assigned.category: not fulfilled
--
sequence.chain: CCUAAGCAAUAUUACGCUAU
assigned.category: not fulfilled
--
sequence.chain: AAGAAGCAAUAUUACGCACG
assigned.category: fulfilled
--
sequence.chain: UCUUAGCAAUAUUACGGAAC
assigned.category: not fulfilled
--
sequence.chain: UUGCAGCAAUAUUACGCGCA
assigned.category: fulfilled
--
sequence.chain: UAGAAGCAAUAUUACGUGCA
assigned.category: fulfilled
--
sequence.chain: ACGAAGCAAUAUUACGCCAG
assigned.category: not fulfilled
--
sequence.chain: AGUCAGCAAUAUUACGUUCC
assigned.category: fulfilled
--
sequence.chain: UACCAGCAAUAUUACGACCA
assigned.category: fulfilled
--
sequence.chain: AGUCAGCAAUAUUACGGUAG
assigned.category: not fulfilled
--
sequence.chain: GGGUAGCAAUAUUACGGACU
assigned.category: fulfilled
--
sequence.chain: ACUAAGCAAUAUUACGGGAU
assigned.category: not fulfilled
--
sequence.chain: GAACAGCAAUAUUACGCGAA
assigned.category: fulfilled
--
sequence.chain: ACAUAGCAAUAUUACGAAUA
assigned.category: fulfilled
--
sequence.chain: GUCCAGCAAUAUUACGUGGG
assigned.category: not fulfilled
--
sequence.chain: AUCUAGCAAUAUUACGGAUC
assigned.category: not fulfilled
--
sequence.chain: AGCCAGCAAUAUUACGUCUC
assigned.category: not fulfilled
--
sequence.chain: UUGUAGCAAUAUUACGACAU
assigned.category: fulfilled
--
sequence.chain: AUAGAGCAAUAUUACGGUAA
assigned.category: not fulfilled
--
sequence.chain: GAUCAGCAAUAUUACGCUGA
assigned.category: not fulfilled
--
sequence.chain: GAGCAGCAAUAUUACGCUGA
assigned.category: not fulfilled
--
sequence.chain: GCGCAGCAAUAUUACGCUCG
assigned.category: not fulfilled
--
sequence.chain: CCGGAGCAAUAUUACGUCCU
assigned.category: not fulfilled
--
sequence.chain: CGGAAGCAAUAUUACGGACG
assigned.category: not fulfilled
--
sequence.chain: GGCGAGCAAUAUUACGCAAA
assigned.category: not fulfilled
--
sequence.chain: UUCCAGCAAUAUUACGCUGU
assigned.category: not fulfilled
--
sequence.chain: CAAAAGCAAUAUUACGCUUU
assigned.category: not fulfilled
--
sequence.chain: CGCGAGCAAUAUUACGCGAG
assigned.category: not fulfilled

// data source = the supplement of paper PMC7877785
